Biological target: T1, recombinant human sc-uPA (human, UniProt P00749 21-431)
T1 construct: 411 amino acid single-chain zymogen expressed in HEK293; the 20-residue signal peptide is not present in the mature protein; also called human single-chain uPA; pro-uPA
Assay: SPR, mAb immobilised
Could you please report measured pKd for the items listed next?
Field pKd (float): negative decimal logarithm of the concentration in molar.

For rec0266-0000-0010-VL_N90Q (antibody, mouse IgG1, name in Kabat numbering, V domains shown) VH: DVKLVESGGGLVKPGGSLKLSCVASGFTFSSYTMSWVRQTPEKRLEWVATISGGGSHIYYADSVKGRFTISRDNAKNTLYLQMSSLKSEDTAIYYCTRDGRDGSWFAYWGQGTLVTVSA VL: DIVMTQSPATLSVTPGDRVSLSCRTSQSIGDYLHWYQQKSHESPRLLIKYVSQSISGIPSRFSGSGSGSDFTLSINSVESEDVGVYYCQQSHSFPLTFGSGTKLELKR the binder record lists pKd as 9.49

For rec0266-0000-0010-VL_N90S (antibody, mouse IgG1, name in Kabat numbering, V domains shown) VH: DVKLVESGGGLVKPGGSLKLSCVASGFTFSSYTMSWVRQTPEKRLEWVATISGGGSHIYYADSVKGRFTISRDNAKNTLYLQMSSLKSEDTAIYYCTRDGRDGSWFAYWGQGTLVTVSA VL: DIVMTQSPATLSVTPGDRVSLSCRTSQSIGDYLHWYQQKSHESPRLLIKYVSQSISGIPSRFSGSGSGSDFTLSINSVESEDVGVYYCQSSHSFPLTFGSGTKLELKR the binder record lists pKd as 9.42

For rec0266-0000-0010-VL_N90V (antibody, mouse IgG1, name in Kabat numbering, V domains shown) VH: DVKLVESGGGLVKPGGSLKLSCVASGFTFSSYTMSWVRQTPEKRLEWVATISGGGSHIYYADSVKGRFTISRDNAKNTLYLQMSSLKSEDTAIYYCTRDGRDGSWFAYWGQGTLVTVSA VL: DIVMTQSPATLSVTPGDRVSLSCRTSQSIGDYLHWYQQKSHESPRLLIKYVSQSISGIPSRFSGSGSGSDFTLSINSVESEDVGVYYCQVSHSFPLTFGSGTKLELKR the binder record lists pKd as 9.24

For rec0266-0000-0010-VL_S91V (antibody, mouse IgG1, name in Kabat numbering, V domains shown) VH: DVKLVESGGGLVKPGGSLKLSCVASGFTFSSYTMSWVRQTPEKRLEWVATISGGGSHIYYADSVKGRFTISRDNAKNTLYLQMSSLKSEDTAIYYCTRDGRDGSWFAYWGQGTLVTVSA VL: DIVMTQSPATLSVTPGDRVSLSCRTSQSIGDYLHWYQQKSHESPRLLIKYVSQSISGIPSRFSGSGSGSDFTLSINSVESEDVGVYYCQNVHSFPLTFGSGTKLELKR the binder record lists pKd as 7.92
